- target-or-test-system: TTK (Homo sapiens)
- Sequence (P33981 whole entry): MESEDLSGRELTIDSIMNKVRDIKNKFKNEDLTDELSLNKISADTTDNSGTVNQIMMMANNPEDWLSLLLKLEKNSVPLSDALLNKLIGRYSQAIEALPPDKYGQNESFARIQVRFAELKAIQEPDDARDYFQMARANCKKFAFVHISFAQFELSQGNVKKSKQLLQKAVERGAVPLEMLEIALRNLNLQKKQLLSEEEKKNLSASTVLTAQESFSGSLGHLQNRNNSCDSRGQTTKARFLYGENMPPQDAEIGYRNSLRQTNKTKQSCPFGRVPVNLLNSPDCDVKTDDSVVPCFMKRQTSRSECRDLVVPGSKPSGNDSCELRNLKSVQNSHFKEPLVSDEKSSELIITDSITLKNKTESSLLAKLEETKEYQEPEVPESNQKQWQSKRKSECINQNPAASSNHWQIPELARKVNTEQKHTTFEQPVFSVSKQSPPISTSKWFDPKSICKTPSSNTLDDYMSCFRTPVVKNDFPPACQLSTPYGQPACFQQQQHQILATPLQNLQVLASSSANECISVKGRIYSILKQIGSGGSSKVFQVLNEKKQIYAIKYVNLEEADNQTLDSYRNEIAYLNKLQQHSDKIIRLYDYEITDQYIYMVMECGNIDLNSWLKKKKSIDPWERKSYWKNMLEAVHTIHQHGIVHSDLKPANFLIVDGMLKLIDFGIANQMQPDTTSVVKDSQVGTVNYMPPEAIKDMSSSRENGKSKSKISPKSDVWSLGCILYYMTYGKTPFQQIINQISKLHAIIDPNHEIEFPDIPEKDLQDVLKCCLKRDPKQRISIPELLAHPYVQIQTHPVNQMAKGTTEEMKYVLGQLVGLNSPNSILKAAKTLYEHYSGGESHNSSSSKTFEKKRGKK
- test-details: scanMAX Kinase panel (DiscoverX), % control
- Assay type: binding
- Design: purchased DiscoverX
- test-parameters: <35% = active
Binning scheme for remaining binding at 1 µM: bin 1 = under 3%, bin 2 = from 3% up to 4%, bin 3 = 4% and over

Would you please look over these solved cases?
smiles-structure	target-or-test-system	class
CNc1cc(Nc2ccc(C(=O)N3CCC(N4CCOCC4)CC3)c3c2OCCO3)nc2[nH]cc(C(F)(F)F)c12	TTK (Homo sapiens)	bin 2
CNc1cc(Nc2ccc(P3(=O)CCN(C4CC4)CC3)cc2OC)nc2[nH]cc(C(F)(F)F)c12	TTK (Homo sapiens)	bin 3
COCCNc1cc(Nc2ccc(P3(=O)CCN(C4CC4)CC3)cc2OC)nc2[nH]cc(C(F)(F)F)c12	TTK (Homo sapiens)	bin 3
CCNc1cc(Nc2ccc(P3(=O)CCN(C4CC4)CC3)cc2OC)nc2[nH]cc(C(F)(F)F)c12	TTK (Homo sapiens)	bin 1
CCNc1cc(Nc2ccc(S(=O)(=O)N3CCC(N4CCOCC4)CC3)c3c2OCCO3)nc2[nH]cc(C(F)(F)F)c12	TTK (Homo sapiens)	bin 1
CNc1cc(Nc2ccc(S(=O)(=O)N3CCC(N4CCOCC4)CC3)cc2OC)nc2[nH]cc(C(F)(F)F)c12	TTK (Homo sapiens)	bin 1
O=C(c1ccc(Nc2cc(C3CC3)c3c(C(F)(F)F)c[nH]c3n2)c2c1OCCO2)N1CCC(N2CCOCC2)CC1	TTK (Homo sapiens)	bin 3
CCCNc1cc(Nc2ccc(C(=O)N3CCC(N4CCOCC4)CC3)c3c2OCCO3)nc2[nH]cc(C(F)(F)F)c12	TTK (Homo sapiens)	bin 2
O=C(c1ccc(Nc2cc(C3CC3)c3c(C(F)(F)F)c[nH]c3n2)c2c1CCO2)N1CC[C@H](N2CCOCC2)C1	TTK (Homo sapiens)	bin 2

QUERY: Entry CCNc1cc(Nc2ccc(C(=O)N3CCC(N4C[C@@H]5C[C@H]4CO5)CC3)c3c2OCC3)nc2[nH]cc(C(F)(F)F)c12 belongs to which category?
RESULT: bin 1

* * *

Listed here: items and their measured IC50.
- target-or-test-system: human GST-DYRK1A (full length) (Homo sapiens, UniProt Q13627)
- Construct: purified human GST-DYRK1A (full length, Thermo scientifics) enzyme; GST; purchased Thermo scientifics
- test-details: GST-DYRK1A enzyme inhibition, ADP-Glo kinase assay
- Assay type: biochemical
- test-parameters: read-out: DYRK1 IC50
Where a name gives a salt, the structure may show the parent alone.

Here is how some compounds turned out for IC50.
compound	IC50
COCCNc1cc(Nc2ccc(S(=O)(=O)N3CCC(N4CCOCC4)CC3)c3c2OCCO3)nc2[nH]cc(C(F)(F)F)c12 [Example 97]	101 to 300 nM
CCNc1cc(Nc2ccc(C(=O)N3CCOCC3)c3c2OCCO3)nc2[nH]ccc12 [Example 3, trifluoroacetate]	301 to 1000 nM
CCCNc1cc(Nc2ccc(C(=O)N3CCOCC3)c3c2OCCO3)nc2[nH]ccc12 [Example 4, trifluoroacetate]	301 to 1000 nM
COc1cc(S(C)(=O)=O)ccc1Nc1cc(NC2CC2)c2c(C(F)(F)F)c[nH]c2n1 [Example 187]	301 to 1000 nM
CCCNc1cc(Nc2ccc(S(C)(=O)=O)cc2OC)nc2[nH]cc(C(F)(F)F)c12 [Example 200]	301 to 1000 nM
CNc1cc(Nc2ccc(S(=O)(=O)N3CCC(N4CCOCC4)CC3)cc2OC)nc2[nH]cc(C#N)c12 [Example 137]	301 to 1000 nM

QUERY: Indicate the recorded IC50 value for this compound: COCCNc1cc(Nc2ccc(P3(=O)CCN(C4CC4)CC3)cc2OC)nc2[nH]cc(C(F)(F)F)c12 [Example 207]
RESULT: < 100 nM
